Tested on: SF-539 CNS
Test: NCI-60 one-dose screen, 48 h (100 = growth as untreated, 0 = no growth, -100 = all killed)
Details: 10 µM unless noted
About 83,000 compounds went through this panel and 20% of them were active in at least one assay; those are over-represented in the sample as a whole.
Answer each item with its documented growth.
The answer is to be given in %; state only the numeric part.

So for `Cc1cc(C)on1` , the logged growth turned out to be 103

So for `COc1cc2c(cc1OC)-c1ccc3cc4c(cc3c1N(CCCn1ccnc1)C2)OCO4` , the logged growth turned out to be 13.3

So for `O=[N+]([O-])c1cccc(/C=C/c2ccccn2)c1` , the logged growth turned out to be 68.6

So for `CCNCCNc1cc(-c2ccc(C(F)(F)F)cc2)c(C#N)c2nc3cc(Cl)c(Cl)cc3n12` , the logged growth turned out to be -92.9

So for `O=C1Nc2ccccc2/C1=N/N=C/c1c[nH]c2ccccc12` , the logged growth turned out to be 78

So for `Cc1ccc(/C(=N\N=C(N)N)c2ccccc2)cc1` , the logged growth turned out to be -24.2

So for C=C(C)C1CCC(=C)C2CCC3(C)OC12/C=C(/COC(C)=O)CCC3O (configuration not stated) , the logged growth turned out to be 104

So for `N#Cc1c(-c2ccc(C(F)(F)F)cc2)cc(N2CC(O)C2)n2c1nc1ccccc12` , the logged growth turned out to be 36.2

So for CC12CC(C#N)CCC1O2 (configuration not stated) , the logged growth turned out to be 96.6

So for `COc1ccc(-c2nc3ncccn3c2/C=C/C(=O)c2cc(OC)c(OC)c(OC)c2)cc1` , the logged growth turned out to be -87.2

So for `Cc1cccc(-c2cc(O)c(C(=O)N3CCOCC3)s2)c1` , the logged growth turned out to be 33.6

So for `CCCCCCNC(=O)c1cc(NCc2cc(O)ccc2O)ccc1O` , the logged growth turned out to be 11.8

So for CCN(CC)CC(O)CNc1c2ccc(Cl)cc2nc2ccc(OC)cc12 (configuration not stated) , the logged growth turned out to be -61.3

So for `CCN(CC)CCNc1ccc(C)c2sc3cc(C)ccc3c(=O)c12` , the logged growth turned out to be 76.3

So for `N=C(N)c1ccc(-c2ccc(/C=C/c3ccccc3)s2)cc1` , the logged growth turned out to be 17.2

So for CCCCC1COc2cccc3c(SCC(=O)N(C)c4cccc(Cl)c4)cc[n+]1c23 (configuration not stated) , the logged growth turned out to be 97.5

So for `COc1ccccc1C(=O)NC(=S)Nc1ccc(-c2nc3ccccc3[nH]2)cc1` , the logged growth turned out to be 48.1

So for `CSc1ccc(Cl)c(C(=O)Nc2sccc2C(N)=O)c1` , the logged growth turned out to be 99.8

So for O=C(/C=C/C12c3ccccc3C(c3ccccc31)C1C(=O)N(c3ccccc3)C(=O)C12)c1ccccc1 (configuration not stated) , the logged growth turned out to be -3.29

So for `COc1ccc(/C(C)=C(\c2ccc(Cl)cc2)c2ccc(OCCN3CCCCC3)cc2)cc1F` , the logged growth turned out to be 4.69

So for `Nc1nc(N)c(-c2ccc(Cl)cc2)c(/C=C/c2ccc([N+](=O)[O-])cc2)n1` , the logged growth turned out to be 93.5

So for `CC[C@]1(O)C[C@H]2CN(CCc3c([nH]c4ccccc34)[C@@](C(=O)OC)(c3cc4c(cc3OC)N(C=O)[C@H]3[C@@](O)(C(=O)OC)[C@H](OC(C)=O)[C@]5(CC)C=CCN6CC[C@]43[C@@H]65)C2)C1` , the logged growth turned out to be -28.7
